For each record, write down the corresponding pEC50.
molecular target: human TREM2 (Homo sapiens); construct: expressed in transfected cells; host or cells: HEK293T; assay: hTREM2 agonist potency by cellular Syk phosphorylation (AlphaLisa) in HEK293T-hTREM2 cells; assay type: cell-based; conditions: Table D; HEK293 cells expressing human TREM2 and DAP12; pSyk AlphaLisa; 45 minutes at room temperature
pEC50: −log10 of the molar value.

(Q) Tell me pEC50 reported for Cc1nc2cc(N3CCO[C@@H](c4cc[nH]c(=O)c4)C3)nc(-c3ccc(F)cc3F)c2c(=O)n1C
(A) 6.30 to 7.30

(Q) Tell me pEC50 reported for Cc1nc2nc(-c3ccc(F)cc3F)cc(C3CCOC(c4cnn(C5CC5)c4)C3)c2c(=O)n1C (centres unmarked)
(A) 5.52 to 6.30

(Q) Tell me pEC50 reported for Cc1nc2cc(N3CCOC(c4cc[nH]c(=O)c4)C3)nc(C34CC(C(F)(F)F)(C3)C4)c2c(=O)n1C (centres unmarked)
(A) ≥ 7.30

(Q) Tell me pEC50 reported for Cc1nc2cc(N3CCO[C@H](c4cc[nH]c(=O)c4)C3)nc(-c3ccc(F)cc3F)c2c(=O)n1C
(A) 4.00 to 5.52

(Q) Tell me pEC50 reported for Cc1nc2cc(N3CCOC(c4cc[nH]c(=O)c4)C3)nc(-c3ccc(F)cc3F)c2c(=O)n1C (centres unmarked)
(A) 6.30 to 7.30

----------
For each record, write down the corresponding EC50.
biological target: human TREM2 (Homo sapiens, UniProt Q9NZC2); construct: expressed in transfected cells; host or cells: HEK293T; assay: hTREM2 agonist potency by cellular Syk phosphorylation (AlphaLisa) in HEK293T-hTREM2 cells; assay type: cell-based; conditions: Table D-2; HEK293 cells expressing human TREM2 and DAP12; pSyk AlphaLisa; 45 minutes at room temperature
Sequence (Q9NZC2 19-230): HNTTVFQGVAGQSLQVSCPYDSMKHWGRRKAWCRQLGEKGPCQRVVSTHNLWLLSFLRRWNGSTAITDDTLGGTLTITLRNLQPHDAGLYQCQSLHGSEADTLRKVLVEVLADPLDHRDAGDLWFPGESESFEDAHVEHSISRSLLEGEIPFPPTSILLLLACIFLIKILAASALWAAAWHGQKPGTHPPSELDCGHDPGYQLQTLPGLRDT
Sequence (O43914 22-113 partner): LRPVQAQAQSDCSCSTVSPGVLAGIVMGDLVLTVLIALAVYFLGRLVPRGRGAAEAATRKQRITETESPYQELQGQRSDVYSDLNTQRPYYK

(Q) Tell me EC50 reported for Cc1nc2c(-c3ccc(C(F)(F)F)cc3F)nc([C@@H]3CCO[C@@H](c4cnn(C5CC5)c4)C3)nc2c(=O)n1C
(A) 50 to 500 nM

(Q) Tell me EC50 reported for C[C@@H]1CN(c2nc(-c3cc(F)c(F)cc3F)c3cnn(C)c(=O)c3n2)C[C@H](c2cnn(C3CC3)c2)O1
(A) ≤ 50 nM

(Q) Tell me EC50 reported for Cn1ncc2c(-c3ccc(F)cc3F)nc(C3CCO[C@@H](c4cnn(C5CC5)c4)C3)nc2c1=O (stereo partly shown)
(A) 50 to 500 nM

(Q) Tell me EC50 reported for O=c1c2nc(C3CCOC(c4cnn(C5CC5)c4)C3)nc(-c3ccc(C(F)(F)F)cc3F)c2cnn1C1CC1 (stereo not shown)
(A) 500 to 3000 nM

(Q) Tell me EC50 reported for Cc1nc2c(-c3ccc(F)cc3F)nc([C@H]3CCO[C@@H](c4cnn(C5CC5)c4)C3)nc2c(=O)n1C
(A) 50 to 500 nM

(Q) Tell me EC50 reported for Cc1nc2nc([C@H]3CCO[C@@H](c4cnn(C5CC5)c4)C3)cc(-c3ccc(F)cc3F)c2c(=O)n1C (single isomer, unassigned)
(A) ≤ 50 nM

(Q) Tell me EC50 reported for Cc1cc([C@H]2CN(c3nc(-c4ccc(F)cc4F)c4nc(C)n(C)c(=O)c4n3)C[C@@H](C)O2)ccn1
(A) ≤ 50 nM

(Q) Tell me EC50 reported for C[C@@H]1CN(c2cc3c(=O)n(C)ncc3c(-c3ccc(F)cc3F)n2)C[C@H](c2cnn(C3CC3)c2)O1
(A) ≤ 50 nM

(Q) Tell me EC50 reported for C[C@@H]1CN(c2nc(-c3ccc(F)cc3F)c3ncn(C)c(=O)c3n2)C[C@H](c2cnn(C3CC3)c2)O1
(A) ≤ 50 nM

(Q) Tell me EC50 reported for COCn1cc([C@H]2CN(c3nc(-c4ccc(Cl)cc4F)c4cnn(C)c(=O)c4n3)C[C@@H](C)O2)cn1
(A) ≤ 50 nM

(Q) Tell me EC50 reported for Cc1nc2c(-c3ccc(F)cc3F)cc(N3C[C@@H](C)O[C@@H](c4cnn(C5CC5)c4)C3)nc2c(=O)n1C
(A) ≤ 50 nM

(Q) Tell me EC50 reported for Cc1nc2c(-c3ccc(F)cc3F)nc([C@@H]3CCO[C@@H](c4cnn(C5CC5)c4)C3)nc2c(=O)n1C
(A) 50 to 500 nM

(Q) Tell me EC50 reported for Cn1ncc2c(-c3ccc(F)cc3F)nc(C3CCO[C@@H](c4cn(C5CC5)[n+](C)c4)C3)nc2c1=O (stereo partly shown)
(A) 500 to 3000 nM

(Q) Tell me EC50 reported for Cn1ncc2c(-c3ccc(Cl)cc3F)nc(N3C[C@@H](C4CC4)O[C@@H](c4cnn(C5CC5)c4)C3)nc2c1=O (single isomer, unassigned)
(A) ≤ 50 nM

(Q) Tell me EC50 reported for Cn1ncc2c(-c3ccc(Cl)cc3F)nc(N3C[C@@H](c4cnn(C5CC5)c4)O[C@@H](C4CC4)C3)nc2c1=O (single isomer, unassigned)
(A) ≤ 50 nM

(Q) Tell me EC50 reported for CCn1ncc2c(-c3ccc(Cl)cc3F)nc(N3C[C@@H](C)O[C@@H](c4cnn(C5CC5)c4)C3)nc2c1=O
(A) ≤ 50 nM

(Q) Tell me EC50 reported for Cn1ncc2c(-c3ccc(Cl)cc3F)nc([C@H]3CCO[C@@H](c4cnn(C5CC5)c4)C3)cc2c1=O
(A) ≤ 50 nM

(Q) Tell me EC50 reported for Cc1nc2c(C3CCCCC3)nc(N3C[C@@H](C)O[C@@H](c4cnn(C5CC5)c4)C3)nc2c(=O)n1C
(A) ≤ 50 nM

(Q) Tell me EC50 reported for CC1Nc2c(nc([C@H]3CCO[C@@H](c4cnn(C5CC5)c4)C3)nc2-c2ccc(F)cc2F)C(=O)N1C (stereo partly shown)
(A) 500 to 3000 nM

(Q) Tell me EC50 reported for C[C@@H]1CN(c2nc(-c3ccc(C(F)(F)F)nc3)c3cnn(C)c(=O)c3n2)C[C@H](c2cnn(C3CC3)c2)O1
(A) ≤ 50 nM

(Q) Tell me EC50 reported for Cn1ncc2c(-c3ccc(C(F)(F)F)cc3F)nc(C3CCO[C@@H](c4cnn(C5CC5)c4)C3)nc2c1=O (stereo partly shown)
(A) 50 to 500 nM

(Q) Tell me EC50 reported for Cn1ncc2c(-c3ccc(Cl)cc3F)nc(N3CCOC(c4cnn(C5CC5)c4)C3)cc2c1=O (stereo not shown)
(A) 50 to 500 nM

(Q) Tell me EC50 reported for C[C@@H]1CN(c2nc(-c3ccc(F)cc3F)c3cnn(C)c(=O)c3n2)C[C@H](c2cnn(C3CC3)c2)O1
(A) ≤ 50 nM

(Q) Tell me EC50 reported for Cc1nc2c(-c3ccc(C(F)(F)F)cc3F)nc(N3C[C@@H](C)O[C@@H](c4cnn(C5CC5)c4)C3)nc2c(=O)n1C
(A) ≤ 50 nM

(Q) Tell me EC50 reported for Cc1nc2c(-c3ccc(F)cc3F)cc([C@H]3CCO[C@@H](c4cnn(C5CC5)c4)C3)nc2c(=O)n1C
(A) 50 to 500 nM

(Q) Tell me EC50 reported for Cn1ncc2c(-c3ccc(C(F)(F)F)cc3F)nc([C@H]3CCO[C@@H](c4cnn(C5CC5)c4)C3)cc2c1=O
(A) 50 to 500 nM

(Q) Tell me EC50 reported for C[C@@H]1CN(c2cc(-c3ccc(Cl)cc3F)c3cnn(C)c(=O)c3n2)C[C@H](c2cnn(C3CC3)c2)O1
(A) 50 to 500 nM

(Q) Tell me EC50 reported for Cc1nc2nc([C@@H]3CCO[C@H](c4cnn(C5CC5)c4)C3)cc(-c3ccc(F)cc3F)c2c(=O)n1C (single isomer, unassigned)
(A) 500 to 3000 nM
